Entry source: ChEMBL document CHEMBL1136170

system_tested: Peroxisome proliferator-activated receptor alpha (Homo sapiens, UniProt Q07869)
Sequence (Q07869 whole entry): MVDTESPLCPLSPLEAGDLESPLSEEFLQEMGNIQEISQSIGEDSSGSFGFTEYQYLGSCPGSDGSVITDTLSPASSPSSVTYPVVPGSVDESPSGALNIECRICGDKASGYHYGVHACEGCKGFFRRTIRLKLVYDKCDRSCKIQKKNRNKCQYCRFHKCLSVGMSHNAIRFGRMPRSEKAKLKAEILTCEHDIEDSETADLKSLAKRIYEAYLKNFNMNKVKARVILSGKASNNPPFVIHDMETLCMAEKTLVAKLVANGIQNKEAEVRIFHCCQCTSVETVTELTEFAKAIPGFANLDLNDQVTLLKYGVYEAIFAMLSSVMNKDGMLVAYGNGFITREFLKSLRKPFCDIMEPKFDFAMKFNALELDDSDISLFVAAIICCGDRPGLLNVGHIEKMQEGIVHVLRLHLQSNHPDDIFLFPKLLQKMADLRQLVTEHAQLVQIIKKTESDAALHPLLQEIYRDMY
test_method_notes: In vitro binding affinity against human Peroxisome proliferator activated receptor alpha
measured_endpoint: IC50

Give the measured IC50 of CCCc1cc(Oc2ccccc2)ccc1OCCCOc1ccc(C2SC(=O)NC2=O)cc1 (stereo unspecified) . > 50 µM

---

Below is a list of entries, each paired with its recorded nAUC value.
System: Rattus norvegicus
test_method_notes: Dose-normalized AUC measured in fasted male Sprague dawely rats when the compound was administered at a peroral dose of 2 mg/Kg
Format: ADME, organism-based
experimental_conditions: in vivo, po
Report as a plain number; the unit uMh is understood.

Recorded nAUC, per entry:
# compound, reading_unit, measured_result
rows = [
    ("CCCc1cc(Oc2ccc(Cl)cc2)ccc1OCCCOc1cccc(C2SC(=O)NC2=O)c1 (stereo unspecified)", "uMh", 1.5),
    ("CCCc1cc(Oc2ccc(Cl)c(Cl)c2)ccc1OCCCOc1cccc(C2SC(=O)NC2=O)c1 (stereo unspecified)", "uMh", 0.8),
    ("CCCc1cc(Oc2ccc(F)c(C)c2)ccc1OCCCOc1cccc(C2SC(=O)NC2=O)c1 (stereo unspecified)", "uMh", 0.6),
    ("CCCc1cc(Oc2ccccc2)ccc1OCCCOc1cccc(C2SC(=O)NC2=O)c1 (stereo unspecified)", "uMh", 21.78),
    ("CCCc1cc(Oc2ccc(F)cc2)ccc1OCCCOc1cccc(C2SC(=O)NC2=O)c1 (stereo unspecified)", "uMh", 3.3),
]

// switching to the query compound
Give the measured nAUC of CN(CCOc1ccc(CC2SC(=O)NC2=O)cc1)c1ccccn1 (stereo unspecified) . 16.4
